# abundance fitness per entry
B1: Transcription factor SOX-4, residues 60 to 127; numbered along this chain, Q06945 (parent)
chain: KRPMNAFMVWSQIERRKIMEQSPDMHNAEISKRLGKRWKLLKDSDKIPFIREAERLRLKHMADYPDYK

variants of: B1; assay: abundance fitness (aPCA) (normalised: wild type 0, dead -1); higher = more abundant; growth selection in yeast, the domain comes from the species named; conditions: Homo sapiens

Below, each entry is followed by its recorded abundance fitness result.
D63H = -0.168
D43E = -0.058
K59N = -0.118
D63I = -0.181

Q) Return reported abundance fitness; argument: E54V
A) -0.696

Q) And then H60R , what is it?
A) -0.19

Q) Query Y64A next
A) -0.094

Q) Next: H26W
A) -0.281

Q) Also I47Q ?
A) -0.006

Q) What about H26I ?
A) -0.088

Q) Input S31I
A) -0.054

Q) Consider next the variant L40G in the same way.
A) -0.08
